All values here come from paper doi:10.1101/2020.11.09.375162v1.

Target: human CB1 receptor (hCB1) (Homo sapiens)
Sequence (P21554 whole entry): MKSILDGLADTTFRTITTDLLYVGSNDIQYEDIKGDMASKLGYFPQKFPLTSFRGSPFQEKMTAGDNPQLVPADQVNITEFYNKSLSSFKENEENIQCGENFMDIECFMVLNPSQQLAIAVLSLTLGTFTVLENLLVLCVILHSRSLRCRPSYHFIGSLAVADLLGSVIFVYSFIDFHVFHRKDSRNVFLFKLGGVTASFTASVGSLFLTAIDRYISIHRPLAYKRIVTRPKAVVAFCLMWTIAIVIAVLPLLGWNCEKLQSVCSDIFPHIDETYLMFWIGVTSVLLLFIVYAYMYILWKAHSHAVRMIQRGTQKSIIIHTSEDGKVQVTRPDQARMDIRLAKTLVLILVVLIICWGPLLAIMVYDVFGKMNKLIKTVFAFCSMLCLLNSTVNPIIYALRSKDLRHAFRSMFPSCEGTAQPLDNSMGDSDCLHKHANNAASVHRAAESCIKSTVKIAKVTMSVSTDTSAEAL
Assay: [3H]-CP55940 competition, membranes
Type: binding
pKi: −log10 of the molar value.
Value Type: pKi

# input Given CCCCCCC(C)(C)c1cc(OC)c([C@@H]2C=C(CO)[C@@H]3C[C@H]2C3(C)C)c(OC)c1 , state its recorded pKi.
# output < 5.00
